Notes on AC50 obtained with Cytochrome P450 3A4 (Homo sapiens, UniProt P08684).
Sequence (P08684 whole entry): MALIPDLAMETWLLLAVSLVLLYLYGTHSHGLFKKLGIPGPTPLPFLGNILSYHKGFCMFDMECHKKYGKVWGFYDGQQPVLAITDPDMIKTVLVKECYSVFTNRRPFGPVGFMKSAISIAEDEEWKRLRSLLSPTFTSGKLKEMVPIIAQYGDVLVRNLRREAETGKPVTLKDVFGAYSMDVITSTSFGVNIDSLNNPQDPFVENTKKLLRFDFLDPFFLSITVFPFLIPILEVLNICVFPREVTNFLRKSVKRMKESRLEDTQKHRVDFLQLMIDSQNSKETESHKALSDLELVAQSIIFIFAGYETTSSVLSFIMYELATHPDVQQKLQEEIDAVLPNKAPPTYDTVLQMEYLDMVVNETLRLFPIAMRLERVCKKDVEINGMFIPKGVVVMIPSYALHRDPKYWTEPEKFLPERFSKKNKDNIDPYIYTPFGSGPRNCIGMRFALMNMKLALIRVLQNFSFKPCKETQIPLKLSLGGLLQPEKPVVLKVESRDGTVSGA

Worked cases, answers included:
compound	endpoint-value
Cc1ccccc1-c1cc(-c2ccccc2O)on1	31.6 µM (inconclusive)
Cc1ccccc1-c1nc(N(C)Cc2ccco2)c2ccccc2n1	25.1 µM (inconclusive)
CCc1ccccc1NC(=O)c1nnn(CC(=O)Nc2ccccc2C)c1N	25.1 µM (inconclusive)
CCNc1ncc2nc(CCc3ccccc3)c(=O)n(CCOC)c2n1	15.8 µM (inconclusive)

Now for the compound whose AC50 we want.
Entry under review: CCOC(=O)C1CCCN(C(=O)C2CCN(S(=O)(=O)N3CCC4(CC3)OCCO4)CC2)C1 (stereo not given) . Reported AC50?
20 µM (inconclusive)

###

Biological target: High affinity choline transporter 1 (Homo sapiens)
Sequence (Q9GZV3 whole entry): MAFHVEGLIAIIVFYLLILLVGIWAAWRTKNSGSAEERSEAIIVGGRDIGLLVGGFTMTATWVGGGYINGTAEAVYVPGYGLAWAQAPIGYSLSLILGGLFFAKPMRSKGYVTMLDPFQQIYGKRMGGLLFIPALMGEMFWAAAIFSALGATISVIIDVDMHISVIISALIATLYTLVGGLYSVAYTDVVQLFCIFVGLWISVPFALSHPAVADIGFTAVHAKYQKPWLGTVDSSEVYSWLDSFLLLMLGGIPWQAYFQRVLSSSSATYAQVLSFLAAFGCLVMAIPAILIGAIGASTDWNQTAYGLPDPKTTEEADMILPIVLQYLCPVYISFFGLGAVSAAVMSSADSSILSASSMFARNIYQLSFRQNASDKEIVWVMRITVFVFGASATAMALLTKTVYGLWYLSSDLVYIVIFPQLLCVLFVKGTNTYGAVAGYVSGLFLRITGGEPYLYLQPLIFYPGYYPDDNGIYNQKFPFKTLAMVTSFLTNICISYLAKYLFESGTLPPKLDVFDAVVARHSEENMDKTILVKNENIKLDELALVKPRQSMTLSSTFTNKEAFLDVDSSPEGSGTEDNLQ
Test: human choline transporter blockers, potency – cell-based, 5-point CRC, membrane potential dye, dose response (AID 504840)
Assay type: functional
Calls of active or inactive are those of the source.
metric: IC50

Worked cases, answers included:
chemical-string	IC50
O=C(O)/C(=C\c1ccccc1OC(F)F)Sc1nnc(-c2ccc(F)cc2)o1	19.1 µM (active)
O=C(NNC(=S)Nc1ccccc1)c1cc(Br)ccc1Cl	12.6 µM (active)
COc1cccc(CCNC(=O)c2ccc(OC)c(OC3CCN(C(C)C)CC3)c2)c1	5 µM (active)

Now for the compound whose IC50 we want.
Entry under review: Nc1nc(Cl)nc2c1ncn2[C@@H]1O[C@H](CO)[C@@H](O)[C@H]1O . Reported IC50?
0.74 µM (active)

###

Target: Protein RecA (Mycobacterium tuberculosis, UniProt P9WHJ3)
Sequence (P9WHJ3 whole entry): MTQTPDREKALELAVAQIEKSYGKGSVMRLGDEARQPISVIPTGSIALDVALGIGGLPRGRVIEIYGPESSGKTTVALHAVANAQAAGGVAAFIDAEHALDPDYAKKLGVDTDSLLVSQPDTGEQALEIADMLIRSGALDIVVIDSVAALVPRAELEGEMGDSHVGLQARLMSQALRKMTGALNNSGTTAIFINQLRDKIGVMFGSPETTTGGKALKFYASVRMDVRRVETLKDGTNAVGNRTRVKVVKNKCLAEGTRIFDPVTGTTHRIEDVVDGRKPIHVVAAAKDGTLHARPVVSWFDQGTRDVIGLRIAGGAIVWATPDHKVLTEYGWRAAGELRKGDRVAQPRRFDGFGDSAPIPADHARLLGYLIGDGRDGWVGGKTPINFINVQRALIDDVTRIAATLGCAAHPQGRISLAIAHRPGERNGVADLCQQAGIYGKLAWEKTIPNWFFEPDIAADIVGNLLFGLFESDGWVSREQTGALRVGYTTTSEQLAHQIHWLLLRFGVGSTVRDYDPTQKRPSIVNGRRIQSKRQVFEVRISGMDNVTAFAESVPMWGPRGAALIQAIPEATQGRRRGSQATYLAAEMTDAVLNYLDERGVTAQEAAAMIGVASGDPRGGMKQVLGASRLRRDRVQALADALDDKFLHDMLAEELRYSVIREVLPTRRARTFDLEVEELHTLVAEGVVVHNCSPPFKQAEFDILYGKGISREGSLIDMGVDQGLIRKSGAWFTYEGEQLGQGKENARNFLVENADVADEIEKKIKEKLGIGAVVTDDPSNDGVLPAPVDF
Experiment: Fluorescence Cell-Free Homogeneous Dose Retest to Identify Inhibitors of RecA-Intein Splicing Activity. [Related pubchem assays (depositor defined):AID2097, AID2223, AID489010, AID492950]
Type: functional
Active and inactive are the calls of the source.
Listing: EC50 of selected compounds

Entry under review: COc1ccc(-c2cc(C(F)(F)F)nc(S(C)(=O)=O)n2)cc1 . Reported EC50?
4.88 µM (active)

Entry under review: CCc1[nH]nc2c1C(Cc1ccccc1)C(C#N)=C(N)O2 (stereo not given) . Reported EC50?
6.37 µM (active)

Entry under review: Cc1cccc(/N=C2\C(Cl)=C(O)OC2OC(=O)c2ccco2)c1 (stereo not given) . Reported EC50?
12.9 µM (active)

Entry under review: C#CCOc1ccc(OC)cc1C(c1c(C)n[nH]c1O)c1c(C)n[nH]c1O . Reported EC50?
0.187 µM (active)

Entry under review: COc1ccc(Nc2nc(N3CCCCC3)nc3ccccc23)c(OC)c1 . Reported EC50?
114 µM (active)

Entry under review: O=C(Nc1ccccc1)C1=C(c2ccccc2)S(=O)(=O)CCS1(=O)=O . Reported EC50?
0.682 µM (active)

###

Target: Heat shock protein HSP 90-alpha (Homo sapiens)
Type: functional, organism-based
Structures can show the parent of a compound that is named as a salt. Activity calls are given as the source filed them.
metric: AC50

Worked cases, answers included:
compound	assay-system	AC50
Cc1ccc(C(=O)c2coc3c2C(=O)C(=O)c2ccccc2-3)cc1	Heat shock protein HSP 90-alpha (Homo sapiens)	3840 nM (active)
COc1ccc(C(=O)/C=C/C(=O)N(CC(=O)NC2CCCCC2)Cc2cccs2)c(O)c1	Heat shock protein HSP 90-alpha (Homo sapiens)	2980 nM (active)
CCCCCCc1cc2cc(S(=O)(=O)c3ccc(Cl)cc3)c(=O)oc2cc1O	Heat shock protein HSP 90-alpha (Homo sapiens)	476 nM (active)
CC(C)Oc1ccc(C(=O)/C=C2/C(=O)Nc3ccccc32)cc1	Heat shock protein HSP 90-alpha (Homo sapiens)	1940 nM (active)

Now for the compound whose AC50 we want.
Entry under review: CCCCC(CC)CNC(=N)NC(=N)NCCCCCCNC(=N)NC(=N)NCC(CC)CCCC (stereo not given) [ALEXIDINE HYDROCHLORIDE] . Reported AC50?
4050 nM (active)

###

Target: Protein RecA (Mycobacterium tuberculosis, UniProt P9WHJ3)
Assay: Fluorescence Cell-Free Homogeneous Dose Retest to Identify Inhibitors of RecA-Intein Splicing Activity. [Related pubchem assays (depositor defined):AID2097, AID2223, AID489010, AID492950]
Format: functional
Activity calls are given as the source filed them.
metric: EC50

Entry under review: CCc1nnc(NC(=O)c2nc(S(=O)(=O)Cc3cccc(C)c3)ncc2Cl)s1 . Reported EC50?
4.37 µM (active)

Entry under review: COc1ccc(C(CC(=O)c2ccc(C)cc2)C(C#N)C#N)cc1OC (centres undefined) . Reported EC50?
4.79 µM (active)

Entry under review: FC(F)(F)c1nnc(-c2ccccc2)nc1Oc1ccc(Cl)cc1Cl . Reported EC50?
0.481 µM (active)

Entry under review: COC1=CC(=O)C(O)=C(CCCCCCC/C=C/CCCCCCCC2=C(O)C(=O)C=C(OC)C2=O)C1=O . Reported EC50?
2.13 µM (active)

All values here come from ChEMBL document CHEMBL1201862.
